Molecular target: UP1+RGG (UniProt P09651-2 1-249)
Sequence (P09651 1-249): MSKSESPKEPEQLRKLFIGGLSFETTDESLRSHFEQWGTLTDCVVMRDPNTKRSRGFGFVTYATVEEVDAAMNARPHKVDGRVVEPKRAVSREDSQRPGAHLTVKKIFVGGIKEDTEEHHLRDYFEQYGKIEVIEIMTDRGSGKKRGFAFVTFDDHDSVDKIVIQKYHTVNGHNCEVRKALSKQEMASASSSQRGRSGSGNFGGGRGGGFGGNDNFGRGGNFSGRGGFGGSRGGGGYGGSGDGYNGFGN
Test: ITC; 100 mM KCl; ITC/CD: 20 mM Tris pH 8.0, 100 mM KCl, 25 C; NMR: 10 mM potassium phosphate pH 6.5, 100 mM KCl, 298 K (10% D2O for HSQC)
Settings: protein: recombinant; tags: C-terminal 6xHis; intramolecular parallel G4
property.name: pKd
By convention, pKd is the negative base-10 log of a molar concentration.

Reported pKd for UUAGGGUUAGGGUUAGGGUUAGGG (structured_RNA) [TERRA-24] was 6.04
